STUDY TARGET: Serine/threonine-protein kinase 26 (Homo sapiens, UniProt Q9P289); further: in the data inactive means no Kd found up to 30 µM
Sequence (Q9P289 whole entry): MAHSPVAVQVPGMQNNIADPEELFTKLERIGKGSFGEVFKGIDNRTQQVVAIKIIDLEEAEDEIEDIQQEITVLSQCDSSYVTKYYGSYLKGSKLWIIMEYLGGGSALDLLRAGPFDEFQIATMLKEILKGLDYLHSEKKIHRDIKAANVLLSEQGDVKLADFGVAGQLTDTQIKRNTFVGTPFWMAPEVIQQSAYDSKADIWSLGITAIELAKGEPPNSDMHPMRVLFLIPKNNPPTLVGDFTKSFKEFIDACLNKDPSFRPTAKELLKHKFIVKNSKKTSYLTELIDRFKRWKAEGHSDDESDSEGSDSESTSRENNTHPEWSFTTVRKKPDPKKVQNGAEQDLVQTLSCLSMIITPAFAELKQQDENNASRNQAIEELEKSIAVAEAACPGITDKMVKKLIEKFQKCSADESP
Calls of active or inactive are those of the source.
Select the correct class. Options are active, inactive and nothing else.

So what was the verdict on CCn1c(C(=O)N(C2CC2)C2CC2)cc2c3c(ncn3C)c(Nc3cc(C)n(C)n3)nc21 in this test?
inactive

So what was the verdict on CN(C[C@@H]1COCCO1)S(=O)(=O)Nc1ccc2ccc3ncc(-c4cnn(C)c4)cc3c(=O)c2c1 in this test?
inactive

So what was the verdict on Cc1nc2cc(-c3nn(C(C)C)c4ncnc(N)c34)ccc2o1 in this test?
active

So what was the verdict on O=C(Cc1ccc(-c2ccc(OCCN3CCOCC3)cc2)cn1)NCc1ccccc1 in this test?
inactive

So what was the verdict on Cc1[nH]c(/C=C2\C(=O)Nc3ccccc32)c(C)c1CCC(=O)O [ORANTINIB] in this test?
inactive

So what was the verdict on C[C@@H](N)c1ccc(C(=O)Nc2ccnc3[nH]ccc23)cc1 in this test?
inactive

So what was the verdict on COCC(=O)NC/C=C/c1ccc2ncnc(Nc3ccc(Oc4ccc(C)nc4)c(C)c3)c2c1 in this test?
inactive

So what was the verdict on CNC(=O)c1nn(C)c2c1C(C)(C)Cc1cnc(Nc3ccc(N4CCN(C)CC4)cc3)nc1-2 in this test?
inactive

* * *

STUDY TARGET: Tyrosine-protein kinase FRK (Homo sapiens); further: in the data inactive means no Kd found up to 30 µM
Sequence (P42685 whole entry): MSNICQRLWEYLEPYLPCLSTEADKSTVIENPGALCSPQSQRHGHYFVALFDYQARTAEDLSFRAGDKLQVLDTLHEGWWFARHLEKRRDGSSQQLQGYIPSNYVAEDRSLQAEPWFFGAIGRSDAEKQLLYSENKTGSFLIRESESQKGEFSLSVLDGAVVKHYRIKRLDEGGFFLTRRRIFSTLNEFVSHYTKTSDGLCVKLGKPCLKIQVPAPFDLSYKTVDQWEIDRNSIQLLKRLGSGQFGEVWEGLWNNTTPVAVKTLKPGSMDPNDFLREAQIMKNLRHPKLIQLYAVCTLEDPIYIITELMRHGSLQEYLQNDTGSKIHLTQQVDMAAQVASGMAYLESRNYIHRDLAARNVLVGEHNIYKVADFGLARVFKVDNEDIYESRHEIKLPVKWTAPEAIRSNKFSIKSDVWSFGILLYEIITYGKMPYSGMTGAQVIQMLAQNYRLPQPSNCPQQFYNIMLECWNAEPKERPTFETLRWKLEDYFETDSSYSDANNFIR
Calls of active or inactive are those of the source.
Select the correct class. Options are 1 (yes) for active, 0 (no) for inactive and nothing else.

So what was the verdict on CO[C@H]1C[C@@H]2CC[C@@H](C)[C@@](O)(O2)C(=O)C(=O)N2CCCC[C@H]2C(=O)O[C@H]([C@H](C)C[C@@H]2CC[C@@H](OC(=O)C(C)(CO)CO)[C@H](OC)C2)CC(=O)[C@H](C)/C=C(\C)[C@@H](O)[C@@H](OC)C(=O)[C@H](C)C[C@H](C)/C=C/C=C/C=C/1C in this test?
0 (no)

So what was the verdict on CNC(=O)c1nn(C)c2c1C(C)(C)Cc1cnc(Nc3ccc(N4CCN(C)CC4)cc3)nc1-2 in this test?
1 (yes)

So what was the verdict on C=CC(=O)N1CCC[C@H](n2c(=O)n(-c3ccc(Oc4ccccc4)cc3)c3c(N)ncnc32)C1 in this test?
0 (no)

* * *

STUDY TARGET: Ribosomal protein S6 kinase alpha-3 (Homo sapiens, UniProt P51812); further: in the data inactive means no Kd found up to 30 µM
Sequence (P51812 whole entry): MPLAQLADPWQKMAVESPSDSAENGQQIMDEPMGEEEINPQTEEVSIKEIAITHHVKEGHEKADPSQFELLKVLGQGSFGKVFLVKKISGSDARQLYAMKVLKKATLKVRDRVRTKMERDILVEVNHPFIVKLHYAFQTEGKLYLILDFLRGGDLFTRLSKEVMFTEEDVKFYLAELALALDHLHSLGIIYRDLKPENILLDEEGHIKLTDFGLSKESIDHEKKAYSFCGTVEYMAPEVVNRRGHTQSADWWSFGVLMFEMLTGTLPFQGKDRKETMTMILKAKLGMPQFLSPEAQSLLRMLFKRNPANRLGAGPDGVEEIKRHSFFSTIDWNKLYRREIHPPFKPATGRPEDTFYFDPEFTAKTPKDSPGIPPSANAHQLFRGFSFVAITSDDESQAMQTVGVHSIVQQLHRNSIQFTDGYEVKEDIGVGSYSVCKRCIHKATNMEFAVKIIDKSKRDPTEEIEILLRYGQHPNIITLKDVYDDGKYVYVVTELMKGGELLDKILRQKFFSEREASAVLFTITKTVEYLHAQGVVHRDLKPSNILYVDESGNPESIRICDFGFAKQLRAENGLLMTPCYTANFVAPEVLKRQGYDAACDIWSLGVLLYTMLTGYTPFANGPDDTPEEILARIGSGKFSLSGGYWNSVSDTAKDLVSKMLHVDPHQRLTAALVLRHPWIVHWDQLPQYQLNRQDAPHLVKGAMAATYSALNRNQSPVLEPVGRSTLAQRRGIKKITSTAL
The source made the active and inactive calls.
Select the correct class. Options are active, inactive and nothing else.

So what was the verdict on Cc1cc(Nc2ncc(Cl)c(Nc3ccccc3S(=O)(=O)C(C)C)n2)c(OC(C)C)cc1C1CCNCC1 in this test?
inactive

So what was the verdict on COc1c(OCCCN2CCOCC2)ccc2c1N=C(NC(=O)c1cnc(N)nc1)N1CCN=C21 in this test?
inactive

So what was the verdict on Cn1cc(-c2cnn3c(N)c(Br)c([C@@H]4CCCNC4)nc23)cn1 in this test?
inactive

So what was the verdict on COCc1c(-c2ccc(NC(=O)Nc3cc(C(F)(F)F)ccc3F)c(F)c2)c2c(N)ncnn2c1CN1CCOCC1 in this test?
active

So what was the verdict on CNC(=O)c1cc(Oc2ccc(NC(=O)Nc3cc(C(C)(C)C)nn3-c3ccc4ncccc4c3)c(F)c2)ccn1 in this test?
inactive

So what was the verdict on O=C1NC(=O)[C@@H](c2cn3c4c(cccc24)CCC3)[C@@H]1c1c[nH]c2ccccc12 [TIVANTINIB] in this test?
inactive

So what was the verdict on COc1cc([C@@H]2c3cc4c(cc3[C@H](O)[C@H]3COC(=O)[C@@H]23)OCO4)cc(OC)c1OC in this test?
inactive

So what was the verdict on O=C(Nc1cc(C(F)(F)F)cc(C(F)(F)F)c1)c1cc(Cl)ccc1O in this test?
inactive

* * *

STUDY TARGET: UniProt P37173
Sequence (P37173 whole entry): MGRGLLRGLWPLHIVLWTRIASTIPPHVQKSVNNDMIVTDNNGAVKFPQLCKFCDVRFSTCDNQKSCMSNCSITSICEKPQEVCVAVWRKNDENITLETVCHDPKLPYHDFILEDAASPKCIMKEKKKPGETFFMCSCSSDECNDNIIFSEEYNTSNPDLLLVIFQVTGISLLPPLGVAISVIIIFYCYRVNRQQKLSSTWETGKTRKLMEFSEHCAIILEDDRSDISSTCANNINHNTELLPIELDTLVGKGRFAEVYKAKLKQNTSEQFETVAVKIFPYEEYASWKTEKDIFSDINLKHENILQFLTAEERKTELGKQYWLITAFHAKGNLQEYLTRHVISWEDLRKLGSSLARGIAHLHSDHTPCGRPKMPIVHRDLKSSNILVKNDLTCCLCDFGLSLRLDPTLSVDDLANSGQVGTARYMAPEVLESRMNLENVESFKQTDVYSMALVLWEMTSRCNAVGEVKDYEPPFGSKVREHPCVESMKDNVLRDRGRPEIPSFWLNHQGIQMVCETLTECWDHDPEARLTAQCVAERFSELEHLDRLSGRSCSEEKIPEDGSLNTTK
Calls of active or inactive are those of the source.
Select the correct class. Options are active, inactive and nothing else.

So what was the verdict on Cn1cc(-c2cnc3ccc4ccc(CS(=O)(=O)NCc5ccccn5)cc4c(=O)c3c2)cn1 [MK-8033] in this test?
inactive

So what was the verdict on CCNC(=O)C#Cc1ccc2c(c1)NC(=O)/C2=C(\Nc1ccc(CN(C)C)cc1)c1ccccc1 in this test?
inactive

So what was the verdict on Cn1cc(-c2cnn3c(N)c(Br)c([C@@H]4CCCNC4)nc23)cn1 [SCH-900776] in this test?
active

So what was the verdict on CC(C)(C)c1nc(-c2cccc(NS(=O)(=O)c3c(F)cccc3F)c2F)c(-c2ccnc(N)n2)s1 [DABRAFENIB] in this test?
active

So what was the verdict on COc1ccc(S(=O)(=O)N(C(C)=O)c2ccccc2/C=C/c2cc[n+]([O-])cc2)cc1 [HMN-214] in this test?
inactive

* * *

STUDY TARGET: UniProtKB Q06187
Sequence (Q06187 whole entry): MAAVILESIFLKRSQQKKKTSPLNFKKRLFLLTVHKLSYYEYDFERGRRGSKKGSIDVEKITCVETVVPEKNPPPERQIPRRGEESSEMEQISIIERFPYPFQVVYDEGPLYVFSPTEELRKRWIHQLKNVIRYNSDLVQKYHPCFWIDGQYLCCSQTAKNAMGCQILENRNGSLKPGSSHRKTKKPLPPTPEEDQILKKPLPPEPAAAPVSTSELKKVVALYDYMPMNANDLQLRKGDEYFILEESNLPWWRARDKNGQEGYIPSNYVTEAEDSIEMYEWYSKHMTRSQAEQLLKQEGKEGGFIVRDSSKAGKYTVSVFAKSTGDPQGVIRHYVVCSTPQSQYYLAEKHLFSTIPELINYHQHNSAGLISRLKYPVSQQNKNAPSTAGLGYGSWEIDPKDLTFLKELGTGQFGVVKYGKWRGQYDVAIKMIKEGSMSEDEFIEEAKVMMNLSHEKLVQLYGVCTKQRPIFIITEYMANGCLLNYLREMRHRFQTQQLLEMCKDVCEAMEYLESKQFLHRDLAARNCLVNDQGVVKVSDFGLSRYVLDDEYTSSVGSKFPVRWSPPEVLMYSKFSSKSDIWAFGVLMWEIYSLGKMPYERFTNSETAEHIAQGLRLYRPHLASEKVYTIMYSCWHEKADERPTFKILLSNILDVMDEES
Activity calls are given as the source filed them.
Select the correct class. Options are T = active, F = inactive and nothing else.

So what was the verdict on CO[C@H]1C[C@@H]2CC[C@@H](C)[C@@](O)(O2)C(=O)C(=O)N2CCCC[C@H]2C(=O)O[C@H]([C@H](C)C[C@@H]2CC[C@@H](OC(=O)C(C)(CO)CO)[C@H](OC)C2)CC(=O)[C@H](C)/C=C(\C)[C@@H](O)[C@@H](OC)C(=O)[C@H](C)C[C@H](C)/C=C/C=C/C=C/1C in this test?
F

So what was the verdict on Cc1nc2cc(-c3nn(C(C)C)c4ncnc(N)c34)ccc2o1 in this test?
F

So what was the verdict on C=CC(=O)N1CCC[C@H](n2c(=O)n(-c3ccc(Oc4ccccc4)cc3)c3c(N)ncnc32)C1 in this test?
T

So what was the verdict on CCCCCCCCCCCCCCCCCCOP(=O)([O-])OC1CC[N+](C)(C)CC1 in this test?
F

So what was the verdict on COc1ccc(S(=O)(=O)N(C(C)=O)c2ccccc2/C=C/c2cc[n+]([O-])cc2)cc1 in this test?
F

So what was the verdict on COc1cc2ncnc(Oc3cccc(NC(=O)Nc4cc(C(C)(C)C(F)(F)F)on4)c3)c2cc1OC in this test?
F

So what was the verdict on O=C(Nc1nc2cccc(-c3ccc(CN4CCS(=O)(=O)CC4)cc3)n2n1)C1CC1 in this test?
F

* * *

Where a name gives a salt, the structure may show the parent alone. Calls of active or inactive are those of the source.
For each of the compounds below, state its Kd.

Measured on Epidermal growth factor receptor (Homo sapiens, UniProt P00533), Cc1cc(C(=O)NOCCO)c(Nc2ccc(I)cc2F)n(C)c1=O [AZD-8330] has a documented Kd of > 30 µM (inactive)

Measured on Epidermal growth factor receptor (Homo sapiens, UniProt P00533), Cc1cccc(-c2nn3c(c2-c2ccnc4ccc(C(N)=O)cc24)CCC3)n1 [GALUNISERTIB] has a documented Kd of > 30 µM (inactive)

Measured on Epidermal growth factor receptor (Homo sapiens, UniProt P00533), Cc1nc2cc(-n3ncc(C(=O)c4cc5ccccc5[nH]4)c3N)ccc2[nH]1 [FGFR INHIBITOR DEBIO 1347] has a documented Kd of > 30 µM (inactive)

Measured on Epidermal growth factor receptor (Homo sapiens, UniProt P00533), CCS(=O)(=O)N1CCN(c2ccc(Nc3ncc(C(N)=O)c(NC4CC4)n3)cc2)CC1 [Cerdulatinib Hydrochloride] has a documented Kd of > 30 µM (inactive)

Measured on Epidermal growth factor receptor (Homo sapiens, UniProt P00533), CCCCCCCCCCCCCCCCCCOP(=O)([O-])OC1CC[N+](C)(C)CC1 [PERIFOSINE] has a documented Kd of > 30 µM (inactive)

Measured on Epidermal growth factor receptor (Homo sapiens, UniProt P00533), C[C@H]1CNCCCN1S(=O)(=O)c1cccc2cncc(F)c12 has a documented Kd of > 30 µM (inactive)

Measured on Epidermal growth factor receptor (Homo sapiens, UniProt P00533), CNC(=O)c1cccc2cc(Oc3ccnc4cc(OCC5(N)CC5)c(OC)cc34)ccc12 [LUCITANIB] has a documented Kd of > 30 µM (inactive)

Measured on Epidermal growth factor receptor (Homo sapiens, UniProt P00533), Cc1nc2cc(-c3nn(C(C)C)c4ncnc(N)c34)ccc2o1 has a documented Kd of > 30 µM (inactive)

Measured on Epidermal growth factor receptor (Homo sapiens, UniProt P00533), O=C(Cc1ccc(-c2ccc(OCCN3CCOCC3)cc2)cn1)NCc1ccccc1 [TIRBANIBULIN] has a documented Kd of > 30 µM (inactive)

* * *

STUDY TARGET: Serine/threonine-protein kinase 10 (Homo sapiens, UniProt O94804); further: in the data inactive means no Kd found up to 30 µM
Sequence (O94804 whole entry): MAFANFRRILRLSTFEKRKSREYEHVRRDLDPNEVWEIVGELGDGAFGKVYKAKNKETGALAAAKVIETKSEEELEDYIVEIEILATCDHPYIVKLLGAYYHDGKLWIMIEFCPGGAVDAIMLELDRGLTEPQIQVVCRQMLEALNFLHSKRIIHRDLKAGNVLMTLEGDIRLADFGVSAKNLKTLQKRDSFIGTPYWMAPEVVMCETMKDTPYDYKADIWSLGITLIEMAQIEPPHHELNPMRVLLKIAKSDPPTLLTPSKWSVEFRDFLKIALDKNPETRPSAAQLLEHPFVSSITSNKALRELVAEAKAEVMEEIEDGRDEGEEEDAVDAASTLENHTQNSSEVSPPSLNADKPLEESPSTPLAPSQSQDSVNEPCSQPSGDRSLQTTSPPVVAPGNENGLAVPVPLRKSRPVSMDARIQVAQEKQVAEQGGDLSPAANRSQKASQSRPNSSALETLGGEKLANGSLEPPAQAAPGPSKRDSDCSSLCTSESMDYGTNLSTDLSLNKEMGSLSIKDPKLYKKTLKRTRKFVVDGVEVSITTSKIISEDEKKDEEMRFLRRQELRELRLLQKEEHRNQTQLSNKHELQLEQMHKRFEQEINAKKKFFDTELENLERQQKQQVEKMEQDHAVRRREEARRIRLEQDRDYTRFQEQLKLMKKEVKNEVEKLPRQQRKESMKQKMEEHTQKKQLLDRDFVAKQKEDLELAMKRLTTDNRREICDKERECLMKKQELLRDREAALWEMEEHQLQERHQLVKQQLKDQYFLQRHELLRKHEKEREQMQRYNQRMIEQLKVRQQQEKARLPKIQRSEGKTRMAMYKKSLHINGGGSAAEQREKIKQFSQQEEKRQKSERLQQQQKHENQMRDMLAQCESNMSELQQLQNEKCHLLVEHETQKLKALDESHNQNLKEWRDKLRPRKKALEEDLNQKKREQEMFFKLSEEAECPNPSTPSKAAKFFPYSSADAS
Activity calls are given as the source filed them.
Select the correct class. Options are true for active, false for inactive and nothing else.

So what was the verdict on C[C@@H](Oc1cc(C(=O)Nc2ccc(C(=O)N3CCN(C)CC3)cc2)nnc1N)c1c(Cl)ccc(F)c1Cl in this test?
false

So what was the verdict on Cn1cnc2c(F)c(Nc3ccc(Br)cc3F)c(C(=O)NOCCO)cc21 in this test?
false

So what was the verdict on CN1CCN(CCOc2cc(OC3CCOCC3)c3c(Nc4c(Cl)ccc5c4OCO5)ncnc3c2)CC1 in this test?
true

So what was the verdict on COCc1c(-c2ccc(NC(=O)Nc3cc(C(F)(F)F)ccc3F)c(F)c2)c2c(N)ncnn2c1CN1CCOCC1 in this test?
false

So what was the verdict on O=C(Nc1nc2cccc(-c3ccc(CN4CCS(=O)(=O)CC4)cc3)n2n1)C1CC1 in this test?
true

So what was the verdict on Cc1nc(NC(=O)N2CCC[C@H]2C(N)=O)sc1-c1ccnc(C(C)(C)C(F)(F)F)c1 in this test?
false

// provenance: ChEMBL document CHEMBL3991601
